Origin of measurements: patent US20200147235A1

- TESTED_TARGET: T1, Human CD98 expressed on stably transfected CHO-K1 cells (human)
- T1 construct: also called huCD98; CD98 heavy chain
- T1 chain: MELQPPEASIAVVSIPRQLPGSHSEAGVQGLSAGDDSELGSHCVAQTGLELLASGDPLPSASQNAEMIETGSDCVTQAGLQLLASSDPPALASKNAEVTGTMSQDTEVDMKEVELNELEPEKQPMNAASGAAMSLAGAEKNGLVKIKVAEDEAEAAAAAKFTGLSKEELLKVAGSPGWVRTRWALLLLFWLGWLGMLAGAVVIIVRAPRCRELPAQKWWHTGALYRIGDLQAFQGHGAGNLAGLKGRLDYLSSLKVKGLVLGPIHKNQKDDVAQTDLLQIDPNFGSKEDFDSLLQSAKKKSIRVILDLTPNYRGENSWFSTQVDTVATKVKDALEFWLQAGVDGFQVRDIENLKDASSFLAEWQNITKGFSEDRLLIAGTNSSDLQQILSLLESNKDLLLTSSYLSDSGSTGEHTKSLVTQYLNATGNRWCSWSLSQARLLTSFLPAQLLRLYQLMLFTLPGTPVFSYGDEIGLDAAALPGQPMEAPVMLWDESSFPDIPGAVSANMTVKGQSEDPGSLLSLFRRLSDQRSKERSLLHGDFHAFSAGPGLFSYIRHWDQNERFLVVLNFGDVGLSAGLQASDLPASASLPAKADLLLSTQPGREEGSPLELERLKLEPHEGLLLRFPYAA
- MEASUREMENT_DESCRIPTION: flow cytometry, CHO-K1 cells expressing human CD98
PROPERTY_LABEL: EC50 (nM)
Numbers only, in nM.

Example cases with answers are listed next.
BINDER	EC50 (nM)
Recombinant anti-CD98 chimeric antibody chAb9 (antibody, human IgG1, V domains shown) VH: QVQLKESGPGLVQPSQTLSLTCAVSGFSLSNYGVIWVRQPPGKGLEWMAVIWTNGNTNYNSTLKSRLSISRDTSKSQVYLKMNSLQTEDTATYYCARHYYDGTYYYGYFDYWGQGVMVTVSS VL: DIVMTQTPSSQAVSAGEKVTMSCKSSQSLLYTENKKNYLAWYQQKPGQSPKLLIYWASTRESGVPDRFMGSGSGTDFTLTISSVQAEDLAVYYCQQYYYFPYMFGAGTKLELK	8.55
Recombinant anti-CD98 chimeric antibody chAb14 (antibody, human IgG1, V domains shown) VH: EVKLQQSGDELVRPGASVKISCKASGYTFTSYSMHWVKERPGQGLEWIGAIFPIIGTTEYNQKFKGKATLTADKSSNTANMELSRLTSEDSAVYYCARVYLSYFDYWGQGVMVTVSS VL: DIQMTQSPSFLSASVGDRVTINCKASQNINKYLDWYQRKHGEAPKLLIYNTNNLQTGIPSRFSGSGSGTDYTLTISSLQPEDVATYFCLQHSSRYTFGAGTKLELK	3.75
Recombinant anti-CD98 chimeric antibody chAb15 (antibody, human IgG1, V domains shown) VH: EVQLVESGGGLVQPGRSLKLSCAASGFTFSDYTMAWVRQAPKKGLEWVATIIYDGRGTYYRDSVKGRFTISRDNAKSTLYLQMDSLRSEDTATYYCARQSDGTYYYWGYFDYWGQGVMVTVSS VL: DIVMTQSPSSLAVSAGETVTINCKSSQSLLFSGNQKNYLAWYQQKPGQSPKLLIYWASTRQSGVPDRFIGSGSGTDFTLTIRSVQAEDLAIYYCQQYYDSPYTFGAGTKLELK	6.63
Recombinant anti-CD98 chimeric antibody chAb6 (antibody, human IgG1, V domains shown) VH: QVQLKESGPGLAQPSQTLSLTCTVSGFSLSTYGVIWLRQPPGKGLEWMGVIWTNGNTNYNSTLKSRLSISRDTSESQVYLQMNSLQTEDTATYYCARHYYDGAYYYGYFDYWGQGVMVTVSS VL: DIVMTQTPSSQAVSAGEKVTMSCKSSQSLLYSENKKNYLAWYQQKPGQSPKLLIYWASTRESGVPDRFIGSGSGTDFTLTISSVQAEDLAVYYCQQYYYFPYTFGAGTKLELK	2.08
Recombinant anti-CD98 chimeric antibody chAb11 (antibody, human IgG1, V domains shown) VH: EVQLVESGGGLVQPGRSLKLSCAASGFTFSDYAMAWVRQAPKKGLEWVAGIIYDGRGTYYRDSVKGRFTISRDNAKSTLYLQMDSLRSEDTATYYCARQGDGTYYYWGYFDYWGQGVMVTVSS VL: DIVMTQSPSSLAVSAGETVTINCRSSQSLLSSGNQKNYLAWYQQKPGQSPKLLIYWASTRQSGVPDRFIGSGSGTDFTLTISSVQAEDLAIYYCQQYYDTPYTFGAGTKLELK	4.57
Recombinant anti-CD98 chimeric antibody chAb13 (antibody, human IgG1, V domains shown, also called chAbl 3) VH: QVQLKESGPGLVQPSQTLSLTCTVSGFSLSSYGVIWVRQPPGKGLEWMGIIWANGNTNYNSALKSRLSISRDTSKSQVYLKMNSLQTEDTATYYCARHYYDGTHYYGYFDYWGQGVMVTVSS VL: DTVMTQTPSSQAVSAGEKVTMSCKSSQSLLYSENKKKYLAWYQQKPGQSPKLLIYWASTRESGVPDRFIGSGSGTDFTLTISSVQAEDLAVYYCQQYYNFPYTFGAGTKLELK	3.24
Recombinant anti-CD98 chimeric antibody chAb3 (antibody, human IgG1, V domains shown) VH: EVKLVESGGGLVQPGNSLRLSCATSGFTFIDYYMSWVRQSPGKALEWLGFIRNKANGYTTEYSASVKGRFTISRDNSQSILYLQMDTLRAEDSATYYCTRDRPAWFVYWGQGTLVTVSA VL: DIVMSQSPSSLAVSVGEKVTMSCKSSQSLLYSSNQKNYLAWYQQKPGQSPKLLIYWASTRESGVPDRFTGSGSGTDFTLTFSSVRAEDLAVYYCQQYYSYPYTFGGGTKLEIK	2.02
Recombinant anti-CD98 chimeric antibody chAb12 (antibody, human IgG1, V domains shown) VH: EVQLVESGGGLVQPGRSLKLSCAASGFTFSDYAMAWVRQAPKKGLEWVASIIYDGRGTYYRDSVKGRFTISRDNAKSTLYLQMDSLRSEDTATYYCARQGDGTYYYWGSFDYWGQGVMVTVSS VL: DIVMTQSPSSLAVSAGETVTINCKSSQSLLSSGNQKNYLAWYQQKPGQSPKLLIYWASTRQSGVPDRFIGSGSGTDFTLTISSVQAEDLAIYHCQQYYDTPYTFGAGTKLELK	2.89

Go through the list and state EC50 for each entry.
1. Recombinant anti-CD98 chimeric antibody chAb7 (antibody, human IgG1, V domains shown) VH: QVQLKESGPGLVQPSQTLSLTCTVSGFSLSTYGVIWVRQPPGKGLEWMGVIWANGNTNYNSTLKSRLSISRDTSKSQVYLKMNSLQTEDTATYYCARHYYDGTYYYGYFDYWGQGVMVTVSS VL: DIVMTQTPSSQAVSAGEKVTMNCKSSQSLLYSENKKNYLAWYQQKPGQSPKLLIYWASTRESGVPDRFIGSGSGTDFTLTISSVQAEDLAVYYCQQYYYFPYTFGPGTKLELK
2. Recombinant anti-CD98 chimeric antibody chAb5 (antibody, human IgG1, V domains shown) VH: EVKLVESGGGLVQPGGSLRLSCATSGFTFTDYYMTWVRQPPGKALEWLGFIRNKANGYTTEYSASVKGRFTISRDNSLSILYLQMNTLRAEDSATYYCARASYVNSEGWFAYWGQGTLVTVSA VL: DIVMSQSPSSLAVSVGEKVTMSCKSSQSLLYSSNQKNYLAWYQQKLGQSPKLLIYWASTRESGVPDRFTGSGSGTDFTLTISSVKAEDLAVYYCQHYYSYPRTFGGGTKLEIK

// result
2.56
3.25
